Measured melting point, listed per entry.

[[record]]
compound_structure_string = "CC(=O)N(C)c1cc(CNc2ccccc2C(=O)Nc2cc3ccccc3cn2)ccn1"
test_readout = "melting point"
measurement = "71 °C"

[[record]]
compound_structure_string = "Nc1cc(CNc2ccccc2C(=O)Nc2cc3ccccc3cn2)ccn1"
test_readout = "melting point"
measurement = "202 °C"

[[record]]
compound_structure_string = "O=C(Nc1cccc(C(F)(F)F)c1)c1ccccc1NCc1ccnc(N2C(=O)COCC2=O)c1"
test_readout = "melting point"
measurement = "201.9 °C"


Now, please, on to the next molecule.
Consider the molecule Nc1cc(CNc2ccccc2C(=O)Nc2ccc3[nH]ncc3c2)ccn1 and give its recorded melting point.
200 °C

Data credit: patent US7517894B2
